Would you kindly list Kd for each of these binders?
biological target: equine FcRn (large alpha subunit p51) in complex with equine beta-2-microglobulin (equine) (UniProt F6XZ61); test: SPR (Biacore), pH 6
One number for each entry, in nM.

- binder: "equine IgG7 D312I mutant (antibody, part only; not given: variable domains, not shown: another chain or arm of the molecule) constant: ASTTAPKVFPLASHSAATSGSTVALGCLVSSYFPEPVTVSWNSGALTSGVHTFPSVLQSSGLYSLSSMVTVPASSLKSQTYICNVAHPASSTKVDKKIVIKECGGCPTCPECLSVGPSVFIFPPKPKDVLMISRTPTVTCVVVDVGHDFPDVQFNWYVDGVETHTATTEPKQEQNNSTYRVVSILAIQHKIWLSGKEFKCKVNNQALPAPVQKTISKPTGQPREPQVYVLAPHRDELSKNKVSVTCLVKDFYPTDIDIEWKSNGQPEPETKYSTTPAQLDSDGSYFLYSKLTVETNRWQQGTTFTCAVMHEALHNHYTEKSVSKSPGK"
  metric_name: "Kd"
  observed_result: 15.2
- binder: "equine IgG7 N434T mutant (antibody, part only; not given: variable domains, not shown: another chain or arm of the molecule) constant: ASTTAPKVFPLASHSAATSGSTVALGCLVSSYFPEPVTVSWNSGALTSGVHTFPSVLQSSGLYSLSSMVTVPASSLKSQTYICNVAHPASSTKVDKKIVIKECGGCPTCPECLSVGPSVFIFPPKPKDVLMISRTPTVTCVVVDVGHDFPDVQFNWYVDGVETHTATTEPKQEQNNSTYRVVSILAIQHKDWLSGKEFKCKVNNQALPAPVQKTISKPTGQPREPQVYVLAPHRDELSKNKVSVTCLVKDFYPTDIDIEWKSNGQPEPETKYSTTPAQLDSDGSYFLYSKLTVETNRWQQGTTFTCAVMHEALHTHYTEKSVSKSPGK"
  metric_name: "Kd"
  observed_result: 159
- binder: "equine IgG7 N434E mutant (antibody, part only; not given: variable domains, not shown: another chain or arm of the molecule) constant: ASTTAPKVFPLASHSAATSGSTVALGCLVSSYFPEPVTVSWNSGALTSGVHTFPSVLQSSGLYSLSSMVTVPASSLKSQTYICNVAHPASSTKVDKKIVIKECGGCPTCPECLSVGPSVFIFPPKPKDVLMISRTPTVTCVVVDVGHDFPDVQFNWYVDGVETHTATTEPKQEQNNSTYRVVSILAIQHKDWLSGKEFKCKVNNQALPAPVQKTISKPTGQPREPQVYVLAPHRDELSKNKVSVTCLVKDFYPTDIDIEWKSNGQPEPETKYSTTPAQLDSDGSYFLYSKLTVETNRWQQGTTFTCAVMHEALHEHYTEKSVSKSPGK"
  metric_name: "Kd"
  observed_result: 6.1

Switching to the query record.
Documented Kd of equine IgG7 T286H mutant (antibody, part only; not given: variable domains, not shown: another chain or arm of the molecule) constant: ASTTAPKVFPLASHSAATSGSTVALGCLVSSYFPEPVTVSWNSGALTSGVHTFPSVLQSSGLYSLSSMVTVPASSLKSQTYICNVAHPASSTKVDKKIVIKECGGCPTCPECLSVGPSVFIFPPKPKDVLMISRTPTVTCVVVDVGHDFPDVQFNWYVDGVETHHATTEPKQEQNNSTYRVVSILAIQHKDWLSGKEFKCKVNNQALPAPVQKTISKPTGQPREPQVYVLAPHRDELSKNKVSVTCLVKDFYPTDIDIEWKSNGQPEPETKYSTTPAQLDSDGSYFLYSKLTVETNRWQQGTTFTCAVMHEALHNHYTEKSVSKSPGK : 16
